# Tested on: COR L88 complex tumor spheroid viability
# Protocol Text: Anticancer human tumor COR L88 cell line growth inhibition;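 also: compound exposure lasted 7 days before viability readout; percent of DMSO vehicle-treated spheroids = 100%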
# Measurement Conditions: second compound 0.03 µM; first compound 0.1 µM; active compounds read low
viability, T/C strictly under 40% means Met; at 40% or over means Not met.

Previously resolved entries follow.
Compound	Assay System	Group
[2H]c1nc(C)nc([2H])c1-c1cc(NC[C@@H](C)c2cccc3c(C(=O)NC)ccnc23)ncn1 + CC[C@@]1(O)C(=O)OCc2c1cc1n(c2=O)Cc2cc3c(CN(C)C)c(O)ccc3nc2-1	COR L88 complex tumor spheroid viability	Not met
COc1ccc([C@@H](O)c2cc(-c3ncnc4cc(N5CCOCC5)ccc34)c(F)cc2Cl)nn1 + CC[C@@]1(O)C(=O)OCc2c1cc1n(c2=O)Cc2cc3c(CN(C)C)c(O)ccc3nc2-1	COR L88 complex tumor spheroid viability	Not met
CC(C)n1c(=O)n(C)c2cnc3cc(F)c(-c4ccc(OCCCN5CCCCC5)nc4)cc3c21 + CC[C@@]1(O)C(=O)OCc2c1cc1n(c2=O)Cc2cc3c(CN(C)C)c(O)ccc3nc2-1	COR L88 complex tumor spheroid viability	Not met
Cc1cc(C)c(CNC(=O)c2cc(-c3ccc(CN4CCOCC4)cc3)cc3c2cnn3C2CCCC2)c(=O)[nH]1 + CC[C@@]1(O)C(=O)OCc2c1cc1n(c2=O)Cc2cc3c(CN(C)C)c(O)ccc3nc2-1	COR L88 complex tumor spheroid viability	Not met
COc1cc(C)[nH]c(=O)c1CN1CCc2c(Cl)cc(C(OC)C3COC3)c(Cl)c2C1=O (stereo unspecified) + CC[C@@]1(O)C(=O)OCc2c1cc1n(c2=O)Cc2cc3c(CN(C)C)c(O)ccc3nc2-1	COR L88 complex tumor spheroid viability	Not met

Field: next compound
In: Find out if reported viability, T/C for CC1COCCN1c1cc(-c2ccnn2C)c2ccnc(-c3ccn[nH]3)c2n1 (stereo unspecified) + CC[C@@]1(O)C(=O)OCc2c1cc1n(c2=O)Cc2cc3c(CN(C)C)c(O)ccc3nc2-1 is less than 40%
Out: Met

====

# System: COR L88 complex tumor spheroid viability
# Protocol Text: Anticancer human tumor COR L88 cell line growth inhibition;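 also: compound exposure lasted 7 days before viability readout; percent of DMSO vehicle-treated spheroids = 100%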
# Measurement Conditions: second compound 0.03 µM; first compound 1 µM; active compounds read low
# Description: Multicellular complex tumor spheroid response to DNA repair inhibitors in combination with DNA-damaging drugs This study explores the anticancer activities of DNA-damaging drugs and inhibitors of DNA damage repair, both as single agents and in combinations. […] Twenty-six patient-derived or established malignant cell lines were evaluated representing sarcoma, melanoma, small cell lung cancer (SCLC), non-small cell lung cancer (NSCLC), as well as bladder, ovarian and pancreatic cancers. […]
Experimental Endpoint: viability, T/C (%)
Answers are plain numbers, in %.

Some molecules with known viability, T/C results, for comparison:
Molecule	U	viability, T/C
CC1COCCN1c1cc(-c2ccnn2C)c2ccnc(-c3ccn[nH]3)c2n1 (stereo unspecified) + CC[C@@]1(O)C(=O)OCc2c1cc1n(c2=O)Cc2cc3c(CN(C)C)c(O)ccc3nc2-1	%	10.1
CC(C)n1c(=O)n(C)c2cnc3cc(F)c(-c4ccc(OCCCN5CCCCC5)nc4)cc3c21 + CC[C@@]1(O)C(=O)OCc2c1cc1n(c2=O)Cc2cc3c(CN(C)C)c(O)ccc3nc2-1	%	29.7
Cc1cc(C)c(CNC(=O)c2cc(-c3ccc(CN4CCOCC4)cc3)cc3c2cnn3C2CCCC2)c(=O)[nH]1 + CC[C@@]1(O)C(=O)OCc2c1cc1n(c2=O)Cc2cc3c(CN(C)C)c(O)ccc3nc2-1	%	46.3
[2H]c1nc(C)nc([2H])c1-c1cc(NC[C@@H](C)c2cccc3c(C(=O)NC)ccnc23)ncn1 + CC[C@@]1(O)C(=O)OCc2c1cc1n(c2=O)Cc2cc3c(CN(C)C)c(O)ccc3nc2-1	%	55.2
COc1ccc([C@@H](O)c2cc(-c3ncnc4cc(N5CCOCC5)ccc34)c(F)cc2Cl)nn1 + CC[C@@]1(O)C(=O)OCc2c1cc1n(c2=O)Cc2cc3c(CN(C)C)c(O)ccc3nc2-1	%	40.1

In: If you can, please state the reported viability, T/C value of COc1cc(C)[nH]c(=O)c1CN1CCc2c(Cl)cc(C(OC)C3COC3)c(Cl)c2C1=O (stereo unspecified) + CC[C@@]1(O)C(=O)OCc2c1cc1n(c2=O)Cc2cc3c(CN(C)C)c(O)ccc3nc2-1 .
Out: 39.2

Just for reference, PubChem BioAssay AID1845201 is where these values come from.
